Measured inhibition of aggregation by item
test: inhibitors of polyQ protein aggregation (AID 1604); details: polyglutamine-induced protein aggregation inhibition assay; stronger effect = higher value; tested at 2.5 µM
Field: numeric (%). Do not append units.

Check out these entries, answers already filled in.
INSERT INTO measurements (compound, u, measured_result) VALUES
  ('CS(=O)(=O)OCCCCOS(C)(=O)=O', '%', 54),
  ('O=c1[nH]cc(F)c(=O)[nH]1', '%', 41.6),
  ('CNCCCC12CCC(c3ccccc31)c1ccccc12', '%', 26.4),
  ('CCOC(=O)[C@H](CCc1ccccc1)N[C@@H](C)C(=O)N1Cc2ccccc2C[C@H]1C(=O)O', '%', 37.2),
  ('c1ccc([C@H]2CN3CCSC3=N2)cc1', '%', 72.2);

For the compound CC1Cc2ccccc2N1NC(=O)c1ccc(Cl)c(S(N)(=O)=O)c1 (stereo unspecified) , report inhibition of aggregation. 85.9

====

Parameter luciferase signal: see the listing below.
target: Mitogen-activated protein kinase 7 (Homo sapiens); assay: ERK5 transactivation activators in reporter cells, primary screen, cell-based, HTS (AID 1508626); conditions: HeLa Gal4-ERK5 transactivation, 18 h, at 5 µM, stronger effect = higher value;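 also: luciferase driven by Gal4-ERK5 fusion binding five Gal4 sites before minimal TATA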
Activity calls are given as the source filed them.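 The calls were made as follows: active = luciferase signal above three times the same-plate solvent-only control wells; inactive = the rest.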

INSERT INTO measurements (compound, measured_result) VALUES
  ('COc1cc2nc(N3CCN(C(=O)c4ccco4)CC3)nc(N)c2cc1OC', '128 AU (inactive)'),
  ('CC[C@H](C)C(=O)O[C@H]1C[C@H](O)C=C2C=C[C@H](C)[C@H](CC[C@@H](O)C[C@@H](O)CC(=O)O)[C@H]21', '36 AU (inactive)'),
  ('Cc1ccc(C)c(OCCCC(C)(C)C(=O)O)c1', '128 AU (inactive)'),
  ('CCC(C)(C)C(=O)O[C@H]1C[C@@H](C)C=C2C=C[C@H](C)[C@H](CC[C@@H]3C[C@@H](O)CC(=O)O3)[C@H]21', '220 AU (inactive)'),
  ('CC(=O)[C@H]1CC[C@H]2[C@@H]3C[C@H](C)C4=CC(=O)CC[C@]4(C)[C@H]3[C@@H](O)C[C@]12C', '84 AU (inactive)');

Find the measured luciferase signal of `CC[C@H](C)C(=O)O[C@H]1C[C@@H](C)C=C2C=C[C@H](C)[C@H](CC[C@@H]3C[C@@H](O)CC(=O)O3)[C@H]21` and report it. 60 AU (inactive)

Give luciferase signal for `COc1ccccc1N1CCN(CCCNc2cc(=O)n(C)c(=O)n2C)CC1` 40 AU (inactive)

Respond only with luciferase signal recorded for NS(=O)(=O)c1cc2c(cc1C(F)(F)F)NC(Cc1ccccc1)NS2(=O)=O (centres undefined) 36 AU (inactive)

Output luciferase signal of `CC1(C)O[C@@H]2[C@@H](CO[C@@]3(COS(N)(=O)=O)OC(C)(C)O[C@@H]23)O1` 24 AU (inactive)

====

test: inhibition of endothelial tube formation, primary screen, imaging, VEGF stimulated, CD31 staining, tube area, NPC library (AID 1117340); conditions: VEGF-stimulated ADSC/ECFC co-culture, at 10 µM, stronger effect = higher value
Response key: 1 (yes) means tube area decrease >= 10%; 0 (no) means tube area decrease < 10%.

See these solved cases before continuing.
INSERT INTO results (compound, assigned_label) VALUES
  ('CN(C)CCCN1c2ccccc2CCc2ccccc21', '0 (no)'),
  ('NCCNc1ccc(NCCN)c2c1C(=O)c1ccncc1C2=O', '1 (yes)'),
  ('CC(CC(C#N)(c1ccccc1)C(C)C)N(C)C (stereo not drawn)', '0 (no)'),
  ('CC(C)(Cc1c[nH]c2ccccc12)NCC(O)COc1ccccc1C#N (stereo not drawn)', '1 (yes)'),
  ('CCCC(=O)OC[C@@H](OC(=O)CCC)[C@@H](OC(=O)CCC)[C@H](Cn1c2nc(=O)[nH]c(=O)c-2nc2cc(C)c(C)cc21)OC(=O)CCC', '1 (yes)'),
  ('NS(=O)(=O)c1ccc(Cl)c(S(N)(=O)=O)c1', '1 (yes)'),
  ('OC[C@H]1O[C@@H]2O[C@H]3[C@H](O)[C@@H](O)[C@@H](O[C@H]4[C@H](O)[C@@H](O)[C@@H](O[C@H]5[C@H](O)[C@@H](O)[C@@H](O[C@H]6[C@H](O)[C@@H](O)[C@@H](O[C@H]7[C@H](O)[C@@H](O)[C@@H](O[C@H]8[C@H](O)[C@@H](O)[C@@H](O[C@H]1[C@H](O)[C@H]2O)O[C@@H]8CO)O[C@@H]7CO)O[C@@H]6CO)O[C@@H]5CO)O[C@@H]4CO)O[C@@H]3CO', '0 (no)');

# ---- query compound ----
State whether the measured tube area decrease reaches 10%, counting equality as reaching it, for `O=C1CCCc2c(O)cccc21` 1 (yes)

====

test: growth inhibition of GSK3B-pretreated HCT116 cells – cell-based, CellTiter-Glo, 0.2 to 20 µM (AID 1117336); details: HCT116 viability after GSK3B inhibitor, at 20 µM
Activity calls are given as the source filed them.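 How the source made its calls: active means compounds lowering colon cancer cell viability after pretreatment blocking the GSK3B kinase; inactive means the rest.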
Write down the outcome that applies. Available outcomes: active, inactive

Answered cases to consult:
INSERT INTO measurements (compound, assigned_label) VALUES
  ('CCN(Cc1ccncc1)C(=O)C(CO)c1ccccc1 (centres undefined)', 'inactive'),
  ('Cc1ccc(Cl)c(Nc2ccccc2C(=O)O)c1Cl', 'inactive');

# fetch the recorded call for COCCc1ccc(OCC2CO2)cc1 (centres undefined) here inactive

Which result was noted for this compound in the test: COc1c(N2CCNC(C)C2)c(F)cc2c(=O)c(C(=O)O)cn(C3CC3)c12 (centres undefined) inactive

Call for entry `O=S(=O)(O)CCS` : inactive

Record request — test call for `NC(=Nc1ccccc1)Nc1ccccc1` inactive

Given `CCCCCCCCCCCCCC[N+](C)(C)Cc1ccccc1` , state the outcome it received in this test. active

====

test system: R275C/Slo1WT/beta2; assay: modulators of BK channel variants, profiling panel, selectivity assay, cell-based, U2OS BacMam, thallium flux, beta subunits (AID 1259406); details: at 30 µM;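 also: initial slope of Thallos dye fluorescence rise after thallium is added; log ratio against the mean of 0.3% DMSO vehicle wells on the same plate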
Note that class boundaries on log fold change Tl+ flux are low interval: < -0.007; middle interval: ≥ -0.007 and < 0.01; high interval: ≥ 0.01

// below: answered compounds
INSERT INTO measurements (compound, assigned_label) VALUES
  ('c1ccc2c(c1)CCCC2C1=NCCN1 (stereo not drawn)', 'high interval'),
  ('CC(=O)OCC(CCn1cnc2cnc(N)nc21)COC(C)=O', 'high interval'),
  ('NC(=O)c1cnccn1', 'high interval'),
  ('c1ccc(CC2=NCCN2)cc1', 'high interval');

Sort `CCC1(c2ccccc2)C(=O)NCNC1=O` into one of the categories. low interval

Class? Entry: `CC(=O)OCC[N+](C)(C)C` middle interval

Assign a bin to `CCN(CC)CCNC(=O)c1ccc(N)cc1` low interval

Place this compound in its band: `CCCCCCCCCCC[C@@H](C[C@@H]1OC(=O)[C@H]1CCCCCC)OC(=O)[C@H](CC(C)C)NC=O` low interval

Class label required: `Cc1onc(-c2ccccc2)c1-c1ccc(S(N)(=O)=O)cc1` low interval

Category of `COC1=CC(=O)C[C@@H](C)[C@]12Oc1c(Cl)c(OC)cc(OC)c1C2=O` : middle interval

Categorize the following entry: `CN1C(C(=O)Nc2ccccn2)=C(O)c2ccccc2S1(=O)=O` middle interval

Hello team, could you let me know which band the following compound falls into: CSc1ccc2c(c1)N(CCC1CCCCN1C)c1ccccc1S2 (stereo not drawn) low interval

Record CCN(Cc1ccncc1)C(=O)C(CO)c1ccccc1 (stereo not drawn) — which class? high interval

====

target: Cellular tumor antigen p53 (Homo sapiens) (UniProt P04637); test: kinase inhibitors altering GFP-p53 stability in HPV16-positive cells, imaging, known kinase inhibitor set, EGFP/DsRed ratio (AID 1053116); settings: stronger effect = higher value; measured here: GFP-p53 positive objects count;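 also: cells exposed to compounds for 24 h at 37 °C before reading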
Sequence (P04637 whole entry, looked up): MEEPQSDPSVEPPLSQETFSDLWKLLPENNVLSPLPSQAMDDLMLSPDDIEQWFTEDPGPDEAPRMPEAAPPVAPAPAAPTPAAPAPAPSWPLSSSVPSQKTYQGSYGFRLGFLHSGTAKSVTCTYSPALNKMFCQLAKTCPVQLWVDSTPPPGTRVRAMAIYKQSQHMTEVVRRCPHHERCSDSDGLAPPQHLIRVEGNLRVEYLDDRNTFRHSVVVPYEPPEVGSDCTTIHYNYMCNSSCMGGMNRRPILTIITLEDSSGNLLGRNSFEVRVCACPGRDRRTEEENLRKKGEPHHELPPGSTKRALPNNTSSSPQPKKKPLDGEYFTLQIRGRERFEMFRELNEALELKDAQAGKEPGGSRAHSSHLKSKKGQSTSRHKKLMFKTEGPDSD
Label YES for high-side EGFP object count (at or above 5) and NO for low-side EGFP object count (below it).

See these solved cases before continuing.
INSERT INTO results (compound, assigned_label) VALUES
  ('COC(=O)Nc1nc2ccc(Oc3ccc(NC(=O)Nc4cccc(Br)c4)cc3)cc2[nH]1', 'YES'),
  ('COc1cccc(-c2c[nH]c3c(N/N=C/c4ccncc4)ncnc23)c1', 'NO');

Check this compound for EGFP object count at or above 5: CC(O)CNc1cc(-c2[nH]c3cccnc3c2-c2ccc(F)cc2)ccn1 (stereo not given) NO

Check the entry `Nc1c(C(=O)c2cccc(-c3ccc[n+]([O-])c3)c2)cnn1-c1ccc(F)cc1F` : does EGFP object count equal or exceed 5? NO

Identify whether the reported EGFP object count of the following compound is 5 or greater: `COC(=O)Nc1nc2ccc(Oc3ccc(NC(=O)Nc4cccc(C(=O)O)c4)cc3)cc2[nH]1` YES

I'd appreciate it if you could say whether `OCCCNc1nccc(-c2c(-c3ccc(F)cc3)nn3cc(C(F)(F)F)ccc23)n1` has EGFP object count at least equal to 5. NO

Is EGFP object count at least 5? Consider `CCn1c(-c2nonc2N)nc2c(C#CC(C)(C)O)ncc(OC[C@@H]3CCCN3)c21` YES

Is reported EGFP object count greater than or equal to 5 here: `Cn1c(=O)c(Oc2ccccc2F)cc2cnc(NC3CCOCC3)nc21` YES

State whether the measured EGFP object count reaches 5, counting equality as reaching it, for `COc1cccc(F)c1C(=O)c1cnc(NC2CCN(S(C)(=O)=O)CC2)nc1N` NO
